Collected IC50 values appear next to each entry.
- Target Of Assay: human IL-13Rα2 on the surface of human tumour cell lines (human) (UniProt Q14627)
- Sequence (Q14627 27-380): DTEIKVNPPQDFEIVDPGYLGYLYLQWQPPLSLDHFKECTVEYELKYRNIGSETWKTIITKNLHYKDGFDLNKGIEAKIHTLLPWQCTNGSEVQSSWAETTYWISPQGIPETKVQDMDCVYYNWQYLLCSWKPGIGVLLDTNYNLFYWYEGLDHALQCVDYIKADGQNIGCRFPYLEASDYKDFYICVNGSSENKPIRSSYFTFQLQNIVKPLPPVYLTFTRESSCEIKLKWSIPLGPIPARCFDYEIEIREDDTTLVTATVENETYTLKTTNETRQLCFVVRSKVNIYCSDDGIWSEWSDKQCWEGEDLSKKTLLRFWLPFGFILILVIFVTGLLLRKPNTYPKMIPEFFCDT
- Experimental Details: competition ELISA on A375 cells, competitor biotinylated ch07
Answer in nM, number only, no unit symbol.

Previously resolved entries follow.
| Binder | Value |
| --- | --- |
| hu07 heavy chain v1.5 / light chain v1.0 (antibody, IgG1, V domains shown) VH: EVQLVESGGGLVQPGGSLRLSCAASGFSLTKYGVHWVRQAPGKGLEWVGVKWAGGSTDYNSALMSRFTISKDNAKNSLYLQMNSLRAEDTAVYYCARDHRDAMDYWGQGTLVTVSS VL: DIQMTQSPSSLSASVGDRVTITCTASLSVSSTYLHWYQQKPGKAPKLLIYSTSNLASGVPSRFSGSGSGTDFTLTISSLQPEDFATYYCHQYHRSPLTFGGGTKVEIK | 12.3 |
| hu07 heavy chain v1.5 paired with chimeric light chain (antibody, V domains shown) VH: EVQLVESGGGLVQPGGSLRLSCAASGFSLTKYGVHWVRQAPGKGLEWVGVKWAGGSTDYNSALMSRFTISKDNAKNSLYLQMNSLRAEDTAVYYCARDHRDAMDYWGQGTLVTVSS VL: QVVLTQSPAIMSASPGERVTMTCTASLSVSSTYLHWYHQKPGSSPKLWIYSTSNLASGVPARFSGSGSGTSYSLTISSMEAEDAATYYCHQYHRSPLTFGSGTKLELK | 7.67 |
| hu07 heavy chain v1.5 / light chain v1.1 (antibody, IgG1, V domains shown) VH: EVQLVESGGGLVQPGGSLRLSCAASGFSLTKYGVHWVRQAPGKGLEWVGVKWAGGSTDYNSALMSRFTISKDNAKNSLYLQMNSLRAEDTAVYYCARDHRDAMDYWGQGTLVTVSS VL: DIQMTQSPSSLSASVGDRVTITCTASLSVSSTYLHWYQQKPGSSPKLLIYSTSNLASGVPSRFSGSGSGTSFTLTISSLQPEDFATYYCHQYHRSPLTFGGGTKVEIK | 19 |

Okay, next one:
Please supply the value of reported IC50 for the item chimeric antibody ch07 (antibody, human IgG1, V domains shown) VH: QVQLKESGPGLVAPSQSLSINCTVSGFSLTKYGVHWIRQSPGKGLEWLGVKWAGGSTDYNSALMSRLTISKDNNKSQVFLKMNSLQSDDSAMYYCARDHRDAMDYWGQGTSVTVSS VL: QVVLTQSPAIMSASPGERVTMTCTASLSVSSTYLHWYHQKPGSSPKLWIYSTSNLASGVPARFSGSGSGTSYSLTISSMEAEDAATYYCHQYHRSPLTFGSGTKLELK
17.3
